Assay: Partition coefficient, log P by shake flask method
Assay type: physicochemical
Settings: octanol/water
Reported logP values for a set of compounds

The examples below pair each entry with its known result.
# COMPOUND, logP
measured = [
    ("CC(=O)N(O)CCCCCNC(=O)CCC(=O)N(O)CCCCCNC(=O)CCC(=O)N(O)CCCCCNC(=O)c1ccc(-n2nc(-c3ccccc3O)nc2-c2ccccc2O)cc1", 2.17),
    ("Cc1c(O)c(=O)ccn1C", -1.02),
    ("COC(=O)c1ccccc1C(=O)OC [DIMETHYL PHTHALATE]", 1.61),
    ("O=C(O)c1ccc(-n2nc(-c3ccccc3O)nc2-c2ccccc2O)cc1", 3.8),
    ("CC(=O)N(O)CCCCCNC(=O)CCC(=O)N(O)CCCCCNC(=O)CCC(=O)N(O)CCCCCNC(=O)C12CC3CC(CC(C3)C1)C2", 2.11),
    ("c1ccc2ccccc2c1", 3.32),
    ("CC(=O)N(O)CCCCCNC(=O)CCC(=O)N(O)CCCCCNC(=O)CCC(=O)N(O)CCCCCNC(=O)Cn1ccc(=O)c(O)c1C", -1.29),
    ("CC(=O)N(O)CCCCCNC(=O)CCC(=O)N(O)CCCCCNC(=O)CCC(=O)N(O)CCCCCNC(=O)COc1ccc(C)cc1", 1.68),
]

QUERY: Which value of logP has been reported for c1ccc2c(c1)oc1ccccc12 in the records?
RESULT: 4.04

Ref: ChEMBL document CHEMBL1159065
